target: ZBP1 (His-ZBP1) (Rattus norvegicus (rat), UniProt Q8CGX0 1-577); assay: EMSA; apparent Kd; REMSA: 50 mM Tris-HCl pH 7.0, 150 mM NaCl, 5 mM MgCl2, 0.2 mM DTT, 0.25 mg/ml tRNA, 0.25 mg/ml BSA, room temperature 20 min; 20 fmol RNA and 3 pmol protein in 20 ul; conditions: protein: recombinant; tags: 6xHis (replaces GST in pGEX); label: biotin at both ends; stem-loop, 16-nt terminal loop (predicted)
Sequence (Q8CGX0 whole entry): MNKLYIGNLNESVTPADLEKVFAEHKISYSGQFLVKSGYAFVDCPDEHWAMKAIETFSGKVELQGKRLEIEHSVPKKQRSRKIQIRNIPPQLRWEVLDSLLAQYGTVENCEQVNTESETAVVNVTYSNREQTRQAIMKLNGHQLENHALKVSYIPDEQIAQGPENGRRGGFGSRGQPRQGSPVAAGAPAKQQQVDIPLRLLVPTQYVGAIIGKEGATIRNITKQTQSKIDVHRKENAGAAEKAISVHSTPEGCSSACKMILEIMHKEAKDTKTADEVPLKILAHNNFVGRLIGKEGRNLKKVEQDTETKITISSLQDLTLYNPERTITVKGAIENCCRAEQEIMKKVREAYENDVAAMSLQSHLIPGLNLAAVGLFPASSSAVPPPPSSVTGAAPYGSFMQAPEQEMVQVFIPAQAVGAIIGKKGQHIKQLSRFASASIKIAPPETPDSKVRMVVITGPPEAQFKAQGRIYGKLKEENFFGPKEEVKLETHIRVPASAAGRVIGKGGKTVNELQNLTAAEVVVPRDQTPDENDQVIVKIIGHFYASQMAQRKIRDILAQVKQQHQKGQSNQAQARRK
observationType: Kd
Dear colleague, please send the value followed by its unit.

Which Kd value is on record for WT zipcode (rat, 54 nt) (structured_RNA) RNA: CGGACUGUUACUGAGCUGCGUUUUACACCCUUUCUUUGACAAAACCUAACUUGC ?
28.1 nM
